- Organism: Homo sapiens
- experiment-summary: Selectivity for human adenosine A1 receptor over human adenosine A2A receptor
Reported Ratio Ki values for the following molecules.
Write no unit; give the number alone.

Query: Consider the molecule "CNC(=O)OC[C@H]1O[C@@H](n2cnc3c(NC4CCCC4)nc(Cl)nc32)[C@](C)(O)[C@@H]1O" and give its measured Ratio Ki.
Reply: 9.3

Query: Item: "OC[C@H]1O[C@@H](n2cnc3c(N[C@@H]4CCOC4)nc(Cl)nc32)[C@H](O)[C@@H]1O"
Reply: 2460

Query: Item: "CNC(=S)OC[C@H]1O[C@@H](n2cnc3c(N[C@@H]4CCOC4)nc(Cl)nc32)[C@](C)(O)[C@@H]1O"
Reply: 19

Query: Item: "CNC(=S)OC[C@H]1O[C@@H](n2cnc3c(NC4CCCC4)nc(Cl)nc32)[C@](C)(O)[C@@H]1O"
Reply: 24.6

---

Measurement record for Adenosine receptor A2 (Sus scrofa); quantity recorded: pKi.
Entry type: numeric. Quantity: pKi, the -log10 of concentration in molar units.

In the examples that follow, each entry is paired with its recorded pKi.
Query: Consider the compound OC[C@H]1O[C@@H](n2cnc3c(N[C@@H]4CCOC4)ncnc32)[C@H](O)[C@@H]1O [TECADENOSON] and give its measured pKi.
Reply: 5.01

Query: Item: "C[C@@]1(O)[C@H](O)[C@@H](COC(=S)NC2CCCC2)O[C@H]1n1cnc2c(NC3CCCC3)nc(Cl)nc21"
Reply: 5.16

Query: Item: "CCCNC(=O)OC[C@H]1O[C@@H](n2cnc3c(NC4CCCC4)nc(Cl)nc32)[C@](C)(O)[C@@H]1O"
Reply: 5.06

Query: Item: "CCCNC(=S)OC[C@H]1O[C@@H](n2cnc3c(N[C@@H]4CCOC4)nc(Cl)nc32)[C@](C)(O)[C@@H]1O"
Reply: 4.89

Query: Item: OC[C@H]1O[C@@H](n2cnc3c(NC4CCCC4)ncnc32)[C@H](O)[C@@H]1O [N6-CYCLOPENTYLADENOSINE]
Reply: 6.09

Attention now turns to another entry.
Query: Consider the compound "C[C@@]1(O)[C@H](O)[C@@H](COC(=O)NC2CCCC2)O[C@H]1n1cnc2c(NC3CCCC3)nc(Cl)nc21" and give its measured pKi.
Reply: 5.33

---

- target-system: UniProt:P0DMS8
- Sequence (P0DMS8 whole entry): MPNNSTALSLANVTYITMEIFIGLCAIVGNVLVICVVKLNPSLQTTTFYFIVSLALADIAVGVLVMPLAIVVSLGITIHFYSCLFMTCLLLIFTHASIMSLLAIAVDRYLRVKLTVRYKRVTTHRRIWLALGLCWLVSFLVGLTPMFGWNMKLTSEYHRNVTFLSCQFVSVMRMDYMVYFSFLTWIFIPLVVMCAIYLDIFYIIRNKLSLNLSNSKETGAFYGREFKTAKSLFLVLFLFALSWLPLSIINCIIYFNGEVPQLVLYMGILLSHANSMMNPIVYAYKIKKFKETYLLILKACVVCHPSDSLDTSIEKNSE
- experiment-summary: Displacement of [3H]NECA from human recombinant adenosine A3 receptor expressed in CHO cells
Reported Ki values for the following compounds.
Form entry: value (µM) — number only.

In the examples that follow, each entry is paired with its recorded Ki.
Query: Consider the compound "OC[C@H]1O[C@@H](n2cnc3c(N[C@@H]4CCOC4)nc(Cl)nc32)[C@H](O)[C@@H]1O" and give its measured Ki.
Reply: 34.6

Query: Item: "C[C@@]1(O)[C@H](O)[C@@H](CO)O[C@H]1n1cnc2c(N[C@@H]3CCOC3)nc(Cl)nc21"
Reply: 18.9

Query: Item: "C[C@@]1(O)[C@H](O)[C@@H](CO)O[C@H]1n1cnc2c(NC3CCCC3)ncnc21"
Reply: 26.8

Continuing:
Query: Consider the compound "OC[C@H]1O[C@@H](n2cnc3c(N[C@@H]4CCOC4)ncnc32)[C@H](O)[C@@H]1O" and give its measured Ki.
Reply: 25.8
